study.system: Histamine H1 (Homo sapiens)
Sequence (P35367 whole entry): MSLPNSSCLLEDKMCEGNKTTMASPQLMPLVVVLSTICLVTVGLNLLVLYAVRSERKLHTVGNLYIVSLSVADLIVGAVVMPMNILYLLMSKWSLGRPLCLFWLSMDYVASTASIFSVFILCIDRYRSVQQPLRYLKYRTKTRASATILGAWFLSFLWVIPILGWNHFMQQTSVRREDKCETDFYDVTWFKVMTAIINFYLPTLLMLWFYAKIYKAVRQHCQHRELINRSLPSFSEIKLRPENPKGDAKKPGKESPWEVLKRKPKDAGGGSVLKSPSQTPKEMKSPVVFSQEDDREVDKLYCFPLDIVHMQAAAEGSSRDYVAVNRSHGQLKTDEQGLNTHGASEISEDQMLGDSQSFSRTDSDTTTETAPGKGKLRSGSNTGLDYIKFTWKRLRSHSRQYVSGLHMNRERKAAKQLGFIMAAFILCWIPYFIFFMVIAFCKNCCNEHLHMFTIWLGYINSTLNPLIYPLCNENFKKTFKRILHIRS

smiles.representation | Ki
O=S(=O)(Nc1nccs1)c1cc(Cl)c(NCCCCNC[C@H]2CCCN2)cc1F | > 10 µM

###

measurement.protocol: Plasma exposure in phrenic nerve activity assay
Format: in vivo
applied.conditions: CD, rat, plasma, intravenous, 30 mg/kg, 15 min, read-out: Total [plasma]
result.type: concentration at 15 min

smiles.representation | result.type | value.reported
C[C@H](c1cccc2c1CNCC2)n1c(=O)oc2cc(S(=O)(=O)Nc3ncns3)ccc21 | concentration at 15 min | 32.1 µM

###

study.system: Melanocortin MC5 (Homo sapiens, UniProt P33032)
Sequence (P33032 whole entry): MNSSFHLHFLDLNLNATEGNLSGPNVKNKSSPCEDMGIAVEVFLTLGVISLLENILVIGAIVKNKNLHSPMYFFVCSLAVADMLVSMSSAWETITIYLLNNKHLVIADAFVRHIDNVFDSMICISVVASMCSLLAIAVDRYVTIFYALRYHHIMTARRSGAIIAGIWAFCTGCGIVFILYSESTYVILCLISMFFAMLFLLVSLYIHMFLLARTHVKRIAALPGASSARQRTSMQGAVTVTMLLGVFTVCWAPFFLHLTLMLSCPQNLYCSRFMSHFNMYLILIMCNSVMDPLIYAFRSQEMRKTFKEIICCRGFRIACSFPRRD

smiles.representation | Ki
O=S(=O)(Nc1nccs1)c1cc(Cl)c(NCCCCNC[C@H]2CCCN2)cc1F | > 10 µM

Taken from paper PMC9578445.
